Molecular target: T1, hUpZnK (upstream Sld2-like region + Zn knuckle) (human, UniProt O94761 335-427)
T1 sequence: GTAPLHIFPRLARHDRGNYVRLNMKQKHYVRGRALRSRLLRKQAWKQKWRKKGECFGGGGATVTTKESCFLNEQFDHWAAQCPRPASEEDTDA
Assay: EMSA; 5 mM ZnCl2, 2 mM Mg2+; 20 mM Tris-HCl pH 7.5, 2 mM MgCl2, 50 mM NaCl, 5% glycerol, 1 mM DTT, 5 mM ZnCl2, 0.1 mg/ml BSA, 10 nM probe, 30 min room temperature; 6% native gel in TBE at 4 C
Details: protein: recombinant; tags: N-terminal 6His-GST (not cleaved); label: 5'-32P on one strand; fork, 22 bp plus 15 nt unpaired T arms (3' arm of A1, 5' arm of A2)

binder: forkDNA (A1+A2) (dsDNA) DNA 1: GTAGTGCATGTACACCACACTCTTTTTTTTTTTTTTT DNA 2: TTTTTTTTTTTTTTTGAGTGTGGTGTACATGCACTAC
Kd [nM]: 42

The measured values listed here are drawn from paper PMC4757822.
